System: 186277-243-T-J2-PDC complex spheroids, viability
experiment.notes: Anticancer human tumor 186277-243-T-J2-PDC patient-derived colon adenocarcinoma cell line growth inhibition [RAS]
cond: second compound 0.000949 µM; first compound 1 µM; stronger effect = lower value
observable: viability, T/C (%)
Note: unit % is implicit; provide only the numeric part.

# annotated cases, reported viability, T/C shown
compound	value.measured
CCC(CC)c1cc(NC2CCC(N)C2)n2nccc2n1 (stereo not drawn) + CCn1c(-c2cccnc2C(C)OC)c2c3cc(ccc31)N1CCOC(CC(NC(=O)C(C(C)C)N(C)C(=O)C3(F)CCN(C(=O)C#CC(C)(C)N(C)C)CC3)C(=O)N3CCCC(N3)C(=O)OCC(C)(C)C2)C1	91.2
CC(C)NCC(C(=O)N1CCN(c2ncnc3c2C(C)CC3O)CC1)c1ccc(Cl)cc1 (stereo not drawn) + CCn1c(-c2cc(N3CCN(C)CC3)cnc2C(C)OC)c2c3cc(ccc31)-c1csc(n1)CC(NC(=O)C1CC1C)C(=O)N1CCCC(N1)C(=O)OCC(C)(C)C2	42.8

Here's the next entry for you.
Could you share which viability, T/C value was measured for NC1c2ccccc2OC12CCN(c1cnc3c(N4CCCc5ncccc54)n[nH]c3n1)CC2 (stereo not drawn) + CCn1c(-c2cc(N3CCN(C)CC3)cnc2C(C)OC)c2c3cc(ccc31)-c1csc(n1)CC(NC(=O)C1CC1C)C(=O)N1CCCC(N1)C(=O)OCC(C)(C)C2 ?
3.49

###

Tested on: 186277-243-T-J2-PDC complex spheroids, viability
experiment.notes: Anticancer human tumor 186277-243-T-J2-PDC cell line growth inhibition [RAS];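 also: spheroids exposed to compounds for 7 days before viability read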
cond: curve of first compound; second compound 0.316 µM
pIC50: −log10 of the molar value.
observable: pIC50

# annotated cases, reported pIC50 shown
molecule	pIC50
NC1c2ccccc2OC12CCN(c1cnc3c(N4CCCc5ncccc54)n[nH]c3n1)CC2 (stereo not drawn) + C#Cc1c(F)ccc2cc(O)cc(-c3ncc4c(N5CC6CCC(C5)N6)nc(OCC56CCCN5CC(F)C6)nc4c3F)c12	> 7.50
CC1(C)CCC(Nc2ncc(C(F)(F)F)c(-c3c[nH]c4c(P(C)(C)=O)c(C#N)ccc34)n2)CN1 (stereo not drawn) + C#Cc1c(F)ccc2cc(O)cc(-c3ncc4c(N5CC6CCC(C5)N6)nc(OCC56CCCN5CC(F)C6)nc4c3F)c12	> 9.02

Could you share which pIC50 value was measured for C[C@@H](NC(=O)c1ncnc(N)c1Cl)c1ncc(C(=O)Nc2cc(C(F)(F)F)c(Cl)cn2)s1 + C#Cc1c(F)ccc2cc(O)cc(-c3ncc4c(N5CC6CCC(C5)N6)nc(OCC56CCCN5CC(F)C6)nc4c3F)c12 ?
> 7.50

###

Test system: 186277-243-T-J2-PDC complex spheroids, viability
experiment.notes: Anticancer human tumor 186277-243-T-J2-PDC cell line growth inhibition [RAS];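 also: spheroids exposed to compounds for 7 days before viability read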
cond: second compound 0.03 µM; first compound 1 µM; stronger effect = lower value
observable: viability, T/C (%)
Note: unit % is implicit; provide only the numeric part.

# annotated cases, reported viability, T/C shown
molecule	viability, T/C [%]
CCN1CCN(Cc2ccc(Nc3ncc(F)c(-c4cc(F)c5nc(C)n(C(C)C)c5c4)n3)nc2)CC1 + CCn1c(-c2cccnc2C(C)OC)c2c3cc(ccc31)N1CCOC(CC(NC(=O)C(C(C)C)N(C)C(=O)C3(F)CCN(C(=O)C#CC(C)(C)N(C)C)CC3)C(=O)N3CCCC(N3)C(=O)OCC(C)(C)C2)C1	110
O=C(c1ccc(F)c(F)c1Nc1ccc(I)cc1F)N1CC(O)([C@@H]2CCCCN2)C1 + CCn1c(-c2cc(N3CCN(C)CC3)cnc2C(C)OC)c2c3cc(ccc31)-c1csc(n1)CC(NC(=O)C1CC1C)C(=O)N1CCCC(N1)C(=O)OCC(C)(C)C2	2.56
CC1(O)CCCC1n1c(=O)c(C(F)F)cc2cnc(NC3CCN(S(C)(=O)=O)CC3)nc21 (stereo unspecified) + CCn1c(-c2cccnc2C(C)OC)c2c3cc(ccc31)N1CCOC(CC(NC(=O)C(C(C)C)N(C)C(=O)C3(F)CCN(C(=O)C#CC(C)(C)N(C)C)CC3)C(=O)N3CCCC(N3)C(=O)OCC(C)(C)C2)C1	80.3
CC1(O)CCCC1n1c(=O)c(C(F)F)cc2cnc(NC3CCN(S(C)(=O)=O)CC3)nc21 (stereo unspecified) + CCn1c(-c2cc(N3CCN(C)CC3)cnc2C(C)OC)c2c3cc(ccc31)-c1csc(n1)CC(NC(=O)C1CC1C)C(=O)N1CCCC(N1)C(=O)OCC(C)(C)C2	9.98
C[C@@H](NC(=O)c1ncnc(N)c1Cl)c1ncc(C(=O)Nc2cc(C(F)(F)F)c(Cl)cn2)s1 + CCn1c(-c2cccnc2C(C)OC)c2c3cc(ccc31)N1CCOC(CC(NC(=O)C(C(C)C)N(C)C(=O)C3(F)CCN(C(=O)C#CC(C)(C)N(C)C)CC3)C(=O)N3CCCC(N3)C(=O)OCC(C)(C)C2)C1	85.8

Here's the next entry for you.
Could you share which viability, T/C value was measured for CC(C)NCC(C(=O)N1CCN(c2ncnc3c2C(C)CC3O)CC1)c1ccc(Cl)cc1 (stereo unspecified) + CCn1c(-c2cc(N3CCN(C)CC3)cnc2C(C)OC)c2c3cc(ccc31)-c1csc(n1)CC(NC(=O)C1CC1C)C(=O)N1CCCC(N1)C(=O)OCC(C)(C)C2 ?
3.74

###

Tested on: 186277-243-T-J2-PDC complex spheroids, viability
experiment.notes: Anticancer human tumor 186277-243-T-J2-PDC cell line growth inhibition [RAS];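 also: spheroids exposed to compounds for 7 days before viability read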
cond: curve of first compound; second compound 0.1 µM
IC50 listing for selected molecules.

# annotated cases, reported IC50 shown
molecule	observable	value.measured
NC1c2ccccc2OC12CCN(c1cnc3c(N4CCCc5ncccc54)n[nH]c3n1)CC2 (stereo not given) + C#Cc1c(F)ccc2cc(O)cc(-c3ncc4c(N5CC6CCC(C5)N6)nc(OCC56CCCN5CC(F)C6)nc4c3F)c12	IC50	< 0.0316 µM
CC(=O)OC12COC1CC(O)C1(C)C(=O)C(O)C3=C(C)C(OC(=O)C(O)C(NC(=O)OC(C)(C)C)c4ccccc4)CC(O)(C(OC(=O)c4ccccc4)C21)C3(C)C (stereo not given) + C=CC(=O)N1CCN(c2nc(OCC3CCCN3C)nc3c(F)c(-c4nc(N)cc(C)c4C(F)(F)F)c(Cl)cc23)C(C)C1	IC50	< 0.0316 µM
C[C@@H](NC(=O)c1ncnc(N)c1Cl)c1ncc(C(=O)Nc2cc(C(F)(F)F)c(Cl)cn2)s1 + C=CC(=O)N1CCN(c2nc(OCC3CCCN3C)nc3c(F)c(-c4nc(N)cc(C)c4C(F)(F)F)c(Cl)cc23)C(C)C1	IC50	> 10 µM

Hi! What's the reported IC50 for C=CC(=O)Nc1cc(Nc2nccc(-c3cn(C)c4ccccc34)n2)c(OC)cc1N(C)CCN(C)C + C=CC(=O)N1CCN(c2nc(OCC3CCCN3C)nc3c(F)c(-c4nc(N)cc(C)c4C(F)(F)F)c(Cl)cc23)C(C)C1 on 186277-243-T-J2-PDC complex spheroids, viability?
> 1 µM

Hi! What's the reported IC50 for CC1(C)CCC(Nc2ncc(C(F)(F)F)c(-c3c[nH]c4c(P(C)(C)=O)c(C#N)ccc34)n2)CN1 (stereo not given) + C=CC(=O)N1CCN(c2nc(OCC3CCCN3C)nc3c(F)c(-c4nc(N)cc(C)c4C(F)(F)F)c(Cl)cc23)C(C)C1 on 186277-243-T-J2-PDC complex spheroids, viability?
> 0.3 µM

###

Tested on: 186277-243-T-J2-PDC complex spheroids, viability
experiment.notes: Anticancer human tumor 186277-243-T-J2-PDC cell line growth inhibition [RAS];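 also: spheroids exposed to compounds for 7 days before viability read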
cond: second compound 1 µM; first compound 0.0316 µM; stronger effect = lower value
observable: viability, T/C (%)
Note: unit % is implicit; provide only the numeric part.

# annotated cases, reported viability, T/C shown
compound	unit.tag	viability, T/C
CC(C)NCC(C(=O)N1CCN(c2ncnc3c2C(C)CC3O)CC1)c1ccc(Cl)cc1 (centres undefined) + C=CC(=O)N1CCN(c2nc(OCC3CCCN3C)nc3c(F)c(-c4nc(N)cc(C)c4C(F)(F)F)c(Cl)cc23)C(C)C1	%	107
CC1(O)CCCC1n1c(=O)c(C(F)F)cc2cnc(NC3CCN(S(C)(=O)=O)CC3)nc21 (centres undefined) + C#Cc1c(F)ccc2cc(O)cc(-c3ncc4c(N5CC6CCC(C5)N6)nc(OCC56CCCN5CC(F)C6)nc4c3F)c12	%	15.6
NC1c2ccccc2OC12CCN(c1cnc3c(N4CCCc5ncccc54)n[nH]c3n1)CC2 (centres undefined) + C=CC(=O)N1CCN(c2nc(OCC3CCCN3C)nc3c(F)c(-c4nc(N)cc(C)c4C(F)(F)F)c(Cl)cc23)C(C)C1	%	112
CCN1CCN(Cc2ccc(Nc3ncc(F)c(-c4cc(F)c5nc(C)n(C(C)C)c5c4)n3)nc2)CC1 + C=CC(=O)N1CCN(c2nc(OCC3CCCN3C)nc3c(F)c(-c4nc(N)cc(C)c4C(F)(F)F)c(Cl)cc23)C(C)C1	%	122
C=CC(=O)Nc1cc(Nc2nccc(-c3cn(C)c4ccccc34)n2)c(OC)cc1N(C)CCN(C)C + C#Cc1c(F)ccc2cc(O)cc(-c3ncc4c(N5CC6CCC(C5)N6)nc(OCC56CCCN5CC(F)C6)nc4c3F)c12	%	13.4
CC(C)NCC(C(=O)N1CCN(c2ncnc3c2C(C)CC3O)CC1)c1ccc(Cl)cc1 (centres undefined) + C#Cc1c(F)ccc2cc(O)cc(-c3ncc4c(N5CC6CCC(C5)N6)nc(OCC56CCCN5CC(F)C6)nc4c3F)c12	%	17.7
Cc1nc(N2CCC3(CC2)COC(C)C3N)c(CO)nc1Sc1ccnc(N)c1Cl (centres undefined) + C=CC(=O)N1CCN(c2nc(OCC3CCCN3C)nc3c(F)c(-c4nc(N)cc(C)c4C(F)(F)F)c(Cl)cc23)C(C)C1	%	103
CC(C)n1nc(-c2ccc3oc(N)nc3c2)c2c(N)ncnc21 + C=CC(=O)N1CCN(c2nc(OCC3CCCN3C)nc3c(F)c(-c4nc(N)cc(C)c4C(F)(F)F)c(Cl)cc23)C(C)C1	%	82.5

Hi! What's the reported viability, T/C for C=CC(=O)N1CCN(c2nc(OCC3CCCN3C)nc3c(F)c(-c4nc(N)cc(C)c4C(F)(F)F)c(Cl)cc23)C(C)C1 (centres undefined) + C#Cc1c(F)ccc2cc(O)cc(-c3ncc4c(N5CC6CCC(C5)N6)nc(OCC56CCCN5CC(F)C6)nc4c3F)c12 on 186277-243-T-J2-PDC complex spheroids, viability?
19.1
